- ASSAYED SYSTEM: EP4 (Homo sapiens (Human))
- EXPERIMENT SUMMARY: hEP4 cAMP assay (BT549 breast cancer cells, HTRF cAMP)
- Assay type: cell-based
- SETUP CONDITIONS: antagonistic activity, PGE2 6 nM
pIC50: −log10 of the molar value.
RECORDED METRIC: pIC50

COc1cc2c(cc1CCNc1cc(-c3ccc(C(=O)O)c(SC)c3)ncn1)OCO2    6.49

a. Oc1c(F)cc(-c2cc(NCCc3ccc4cc[nH]c4c3)ncn2)cc1F
b. CCOc1cc(-c2cc(NCCc3cc4ccccc4cc3Cl)ncn2)sc1C(=O)O
Pick one: a or b . Which has the bigger pIC50 number? // caller expects the label of the chosen entry
b
(b: 7.49, a: 6.18)

1. CCOc1cc(-c2cc(NCCc3ccc4sccc4c3C)ncn2)ccc1CC(=O)O
2. CCOc1cc(-c2cc(NCCc3cc4cccnc4cc3F)ncn2)sc1-c1noc(=O)[nH]1
Identify the entry with the larger pIC50. Options: 1 and 2 Identify your pick by its label.
2
(2: 8.10, 1: 6.28)

a. COc1cc2ccccc2cc1CCNc1cc(-c2cc(OC)c(C(=O)O)c(OC)c2)ncn1
b. Cn1[nH]c(=O)c2ccc(-c3cc(NCCc4ccc5cc[nH]c5c4)ncn3)cc21
c. C#Cc1c(CCNc2cc(-c3ccc(C(=O)O)c(OCC)c3)ncn2)ccc2ccccc12
Order the records, beginning with the lowest pIC50 and ending with the highest. Rank them, then answer with their labels in that order.
a, b, c

----------
- ASSAYED SYSTEM: PTGER4 (EP4) (Homo sapiens (Human), UniProt P35408)
- Sequence (P35408 whole entry): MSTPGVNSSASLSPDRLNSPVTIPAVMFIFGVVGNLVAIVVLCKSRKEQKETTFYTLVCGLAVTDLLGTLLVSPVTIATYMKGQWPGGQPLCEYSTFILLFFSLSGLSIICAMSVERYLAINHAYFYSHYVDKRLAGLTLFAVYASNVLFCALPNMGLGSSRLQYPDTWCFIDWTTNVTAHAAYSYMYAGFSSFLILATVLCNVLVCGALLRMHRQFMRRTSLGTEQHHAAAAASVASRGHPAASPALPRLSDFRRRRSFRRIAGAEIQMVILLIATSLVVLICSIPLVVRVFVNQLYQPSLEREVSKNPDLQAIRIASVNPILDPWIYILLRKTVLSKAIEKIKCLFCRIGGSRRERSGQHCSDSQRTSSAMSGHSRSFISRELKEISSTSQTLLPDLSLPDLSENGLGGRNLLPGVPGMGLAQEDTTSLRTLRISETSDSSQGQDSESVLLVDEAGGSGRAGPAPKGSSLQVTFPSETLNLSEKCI
- EXPERIMENT SUMMARY: cell-based
RECORDED METRIC: IC50 (µM)

CCc1cc(-c2cc(NCCc3cc(F)c4sccc4c3)ncn2)cc(Cl)c1CC(=O)O    0.088

a. CCOc1cc(-c2cc(NCCc3cc(F)c4sccc4c3)ncn2)ccc1C(=O)C(=O)O
b. CCOc1cc(-c2cc(NCCc3c(OC)cc4ccccc4c3F)ncn2)sc1C(=O)O
c. COc1cc2sccc2cc1CCNc1cc(-c2ccc(CC(=O)O)c(OC)c2)ncn1
Highest IC50 first, then in falling order down to the smallest. // format: requested-order list of labels
c, a, b
(c: 0.126 µM, a: 0.076 µM, b: 0.001 µM)

----------
Endpoint: IC50. System: UniProt P35408. Items follow.
RECORDED METRIC: IC50 (nM)

Some solved cases for reference:
CCOc1cc(-c2cc(NCCc3cc4ccccc4cc3OC(F)F)ncn2)sc1C(=O)O [Ex 45]    5
CCOc1cc(-c2cc(NCCc3cc4ccccc4cc3OC(C)C)ncn2)ccc1OCC(=O)O [Ex 89]    17
COc1c(CCNc2cc(-c3ccc(C(=O)O)c(SC)c3)ncn2)cc2ccccc2c1Cl [Ex 186]    194
CCOc1cc2sccc2cc1CCNc1cc(-c2ccc(OCC(=O)O)c(OCC)c2)ncn1 [Ex 53]    12
CCOc1cc(-c2cc(NCCc3ccc4sccc4c3)nc(C)n2)sc1C(=O)O [Ex 96]    92
CCOc1cc(-c2cc(NCCc3ccc4c(c3)CCS4)ncn2)sc1C(=O)O [Ex 15]    12
CCOc1cc(-c2cc(NCCc3ccc4cccc(F)c4c3)ncn2)ccc1C(=O)O [Ex 269]    588

I. CCOc1cc(-c2cc(NCCc3cc4ccccc4cc3NC)ncn2)ccc1C(=O)O [Ex 312]
II. CCOc1cc(-c2cc(NCCc3cc4c(cc3Cl)NCCO4)ncn2)sc1C(=O)O [Ex 149]
Between the entries labelled I and II , which has a larger IC50 value on record? Mark your answer with the label of the selected entry.
I
(I: 556 nM, II: 194 nM)
